Reference for the values: PubChem BioAssay AID1259372

TESTED ON: Microphthalmia-associated transcription factor (Homo sapiens) (UniProt O75030)
Sequence (O75030 whole entry, looked up): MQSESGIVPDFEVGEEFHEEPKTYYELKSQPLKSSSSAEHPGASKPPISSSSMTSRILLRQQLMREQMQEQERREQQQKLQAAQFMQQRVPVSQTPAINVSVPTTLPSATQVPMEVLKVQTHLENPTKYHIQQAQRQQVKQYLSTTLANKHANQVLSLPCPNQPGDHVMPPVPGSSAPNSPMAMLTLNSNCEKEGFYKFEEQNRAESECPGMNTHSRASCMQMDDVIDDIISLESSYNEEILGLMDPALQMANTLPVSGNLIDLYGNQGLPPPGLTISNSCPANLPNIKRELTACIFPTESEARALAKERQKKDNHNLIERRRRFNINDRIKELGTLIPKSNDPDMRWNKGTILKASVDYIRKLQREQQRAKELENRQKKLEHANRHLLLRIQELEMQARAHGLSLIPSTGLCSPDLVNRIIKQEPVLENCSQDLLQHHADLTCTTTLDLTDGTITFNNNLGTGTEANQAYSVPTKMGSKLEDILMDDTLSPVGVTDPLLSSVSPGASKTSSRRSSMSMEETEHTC
TEST METHOD NOTES: MITF inhibitors, retest of hits, confirmation, biochemical, AlphaScreen, triplicate (AID 1259372)
STUDY CONDITIONS: AlphaScreen MITF homodimerization, biotin/His-MITF beads; at 2.6 µM; active compounds read high
In all, about 4,700 compounds went through this assay and about 760 (16%) were called active. Not all results are given here.
MEASURE: inhibition (%)
Report only the number, with the unit % understood.

The following compounds have reported results that may help.
COc1ccc(-c2nc(Nc3cc(OC)c(OC)c(OC)c3)c3[nH]cnc3n2)cc1; 14
NS(=O)(=O)c1cccc(NC(=O)COc2ncnc3sc(-c4ccccc4)cc23)c1; 13.3
COc1cccc(CN2CCC(C(=O)NCCc3ccccc3)CC2)c1; 8.72
CN1CCN(CCOCCOc2ccccc2Cl)CC1; 6.9

Let us examine a further case.
Look up Microphthalmia-associated transcription factor (Homo sapiens) (UniProt O75030) data: inhibition of N#Cc1ccc(/C=N/NC(=O)c2cc([N+](=O)[O-])cc([N+](=O)[O-])c2)cc1 , then report it.
3.87

---

TESTED ON: Microphthalmia-associated transcription factor (Homo sapiens)
TEST METHOD NOTES: MITF inhibitors, retest of hits, confirmation, biochemical, AlphaScreen, triplicate (AID 1259372)
STUDY CONDITIONS: AlphaScreen MITF homodimerization, biotin/His-MITF beads; at 2.6 µM; active compounds read high
Among all 4,700 compounds or so, about 760 (16%) were called active. A selection follows.
MEASURE: inhibition (%)
A number alone suffices; assume %.

Below: 10 compounds and their reported inhibition.
Cc1ccc(NC(=O)COC(=O)CCC(=O)Nc2sc3c(c2C(N)=O)CCC3)cc1F; 87.4
CCN(CC)C(=O)C1CCCN(Cc2cccc(Cl)c2)C1 (stereo not given); -2.94
CCCS(=O)(=O)N1CCN(C(C)C)CC1; 10.5
Cc1cccc(NC(=O)CNCCN2CCCCC2)c1C; 7.31
O=[N+]([O-])c1ccccc1CN1CCN(Cc2ccccc2C(F)(F)F)CC1; 3.85
Cn1c(-c2ccc(F)cc2)cnc1NCc1cccnc1; -19.5
CCCCCCOC(=O)c1cc(C(=O)OCCCCCC)c(C)nc1C; -4.67
CC(C)(C)NCC(=O)Nc1c2c(nc3ccccc13)N(Cc1ccccc1)CC2; 18.3
CC1CN(CCOc2ccccc2[N+](=O)[O-])CC(C)O1 (stereo not given); 6.95
CCCS(=O)(=O)N1CCN(Cc2ccccc2Br)CC1; 7.16

Assign inhibition to the following record: CCCn1c(C)cc(-c2csc(NC(=O)Cc3ccsc3)n2)c1C
21.7

Specify measured inhibition for O=[N+]([O-])c1ccccc1CN1CCN(Cc2cccnc2)CC1 .
14.6

Complete the entry with inhibition for COc1ccc(OCCn2ccnc2C)cc1
-1.1

Return value of inhibition for input C1=CC2CC1CC2CN1CCN(Cc2c[nH]c3ccccc23)CC1 (stereo not given) , no commentary.
-0.81

Give inhibition for CSc1ccc(CN2CCN(S(=O)(=O)c3ccc([N+](=O)[O-])cc3)CC2)cc1
19.9

Supply reported inhibition belonging to this compound: CC(=O)N1CCN(CC(=O)Nc2ccc(C)c(F)c2)CC1
-10.5

Return value of inhibition for input Cc1cccc(CSc2n[nH]c(=O)[nH]c2=O)c1 , no commentary.
-2.69
